This document collects IC50 values reported for Proto-oncogene tyrosine-protein kinase Src (Homo sapiens, UniProt P12931).
Only the number, expressed in mM, is required.

Worked cases, IC50 given:
// assay Proto-oncogene tyrosine-protein kinase Src (Homo sapiens, UniProt P12931), entry "O=Cc1cccc(C=O)c1OP(=O)(O)O" , IC50 value = 0.5

// assay Proto-oncogene tyrosine-protein kinase Src (Homo sapiens, UniProt P12931), entry O=P(O)(O)C(O)c1ccc2ccccc2c1 (configuration not stated) , IC50 value = 4.4

// assay Proto-oncogene tyrosine-protein kinase Src (Homo sapiens, UniProt P12931), entry "COP(=O)(O)Oc1ccccc1C=O" , IC50 value = 3.3

// assay Proto-oncogene tyrosine-protein kinase Src (Homo sapiens, UniProt P12931), entry "COC(=O)c1cccc(OP(=O)(O)O)c1" , IC50 value = 4

Next compound, please.
// assay Proto-oncogene tyrosine-protein kinase Src (Homo sapiens, UniProt P12931), entry O=P(O)(O)Oc1ccccc1 [PHENYL DIHYDROGEN PHOSPHATE] , IC50 value = 2.5
